For each record, write down the corresponding TGI.
System: SK-MEL-28 melanoma
experimental.details: NCI tumour cell line growth inhibition, 48 h

Input line: Report the value of TGI obtained on SK-MEL-28 melanoma for O=c1nc2n3c4c(cccc4nc-2c(=O)[nH]1)CCC3 .
Output line: > 100 µM

Input line: Fill in TGI for COc1cc2cc(OC(C)=O)c3cc4c(cc3c2c(OC)c1OC)OCO4 tested with SK-MEL-28 melanoma.
Output line: > 100 µM

Input line: Would you please give the reported TGI of O=C(C(=O)c1cc2ccccc2[nH]1)c1cc2ccccc2[nH]1 with SK-MEL-28 melanoma?
Output line: > 347 µM

----------
Tested on: T-47D breast
experimental.details: NCI tumour cell line growth inhibition, 48 h
I'd be grateful if you could share measured TGI for these entries.

Input line: Please give the documented TGI of COc1ccc(C(CC2(c3ccc(OC)cc3)SCCCS2)NC(C)=O)cc1 (configuration not stated)
Output line: 66.5 µM

Input line: // fetch TGI given entry CCc1cccc(C(C)C)c1NC(=O)C(=O)C1C(=O)Nc2ccccc2S1=O (configuration not stated)
Output line: > 100 µM

Input line: Provide TGI value for the following compound: O=C(O)CCNCC(=O)O
Output line: > 100 µM

Input line: Given Nc1nc(Cl)cc(NCC2(O)CCC2)n1 , respond with its TGI.
Output line: > 100 µM

Input line: Respond only with TGI recorded for Cc1ccc(O)c(C(c2cccc(C(c3cc(C)ccc3O)c3cc(C)ccc3O)c2)c2cc(C)ccc2O)c1
Output line: 4.45 µM

Input line: Give reported TGI value for O=C(Nc1ccc(C(F)(F)F)cc1)NC(F)(F)F
Output line: > 100 µM

Input line: Using known records, supply TGI for CC(C)C[C@H](NC(=O)CNC(=O)c1cc(Cl)ccc1Cl)B(O)O
Output line: 0.0602 µM

Input line: Supply TGI value. Item: CCOC(=O)Cc1c(C)c2cc(C(=O)c3ccccc3)c(O)cc2oc1=O
Output line: 88.3 µM

Input line: Could you please provide reported TGI for O=C(CN(/C=C/C(=O)C(F)(F)F)c1ccc(Cl)cc1)c1ccc(Cl)cc1 ? Thanks!
Output line: 38.3 µM

Input line: Identify the reported TGI for the following entry. CC(=O)NC1C(OC(C)C(=O)NC(C)C(=O)NC(CCC(=O)NCCCCCNc2ccc([N+](=O)[O-])c3[nH]c4ccccc4c(=O)c23)C(N)=O)C(O)C(CO)OC1(C)OCc1ccccc1 (configuration not stated)
Output line: > 100 µM

Input line: Annotate the compound OCC1C(OCc2ccccc2)C(OCc2ccccc2)C(OCc2ccccc2)CN1Cc1ccccc1 (configuration not stated) with its measured TGI.
Output line: > 100 µM

Input line: Query TGI for N#CC12C(=O)NC(=O)C1(C#N)C1C=CC2CC1 (configuration not stated)
Output line: > 100 µM

Input line: Identify TGI associated with the compound CCOC(=O)C1(C#N)OC(=O)c2cnccc21 (configuration not stated)
Output line: > 100 µM

Input line: Identify measured TGI associated with CO/C=C/C=C(\C#N)C(=O)OC
Output line: > 100 µM

Input line: Tell us which TGI value is on record for Cc1ccc2c(c1)C(=C(C#N)C#N)CCCS2(=O)=O
Output line: > 100 µM

Input line: Report measured TGI; entry is CC(=O)OCCn1cnc2c(NCC=C(C)C)ncnc21
Output line: > 100 µM

Input line: # return recorded TGI for entry Oc1c(Br)cc(/C=C/c2ccnc(/C=C/c3cc(Br)c(O)c(Br)c3)c2)cc1Br
Output line: 52.1 µM

----------
Test system: SW-620 colon
experimental.details: NCI tumour cell line growth inhibition, 48 h
Where a SMILES comes first, the peptide text is derived from it. Bridges are numbered along the chain shown (N, C = ends). [ ]: non-standard residue; d: D form. Aib = CC(C)(N)C(=O)O; βAla = NCCC(=O)O
Give TGI for every item shown.

Input line: For the molecule N#CC12C(=O)NC(=O)C1(C#N)C1C=CC2CC1 (centres undefined) , give its reported TGI.
Output line: > 100 µM

Input line: Hello, please tell me recorded TGI for this one: CCn1cc2c(=O)n3ncn(-c4ccc(Br)cc4)c3nc2n1
Output line: > 100 µM

Input line: Identify measured TGI associated with CC[C@H](C)[C@H](NC(=O)[C@H]1CCCCN1C)C(=O)N(C)[C@H](C[C@@H](OC(C)=O)c1cccc(C(=O)N[C@@H](Cc2ccccc2)C[C@H](C)C(=O)OC)n1)C(C)C
Output line: > 25 µM

Input line: Provide TGI value for the following molecule: CC1(C)NC(=O)C(NC(=O)C(N)CC(=O)O)CCCCNC(=O)CCNC1=O (centres undefined) (H-DK[Aib][βAla]; lactam 2-C; configuration not given here)
Output line: > 100 µM

----------
System: NCI-H23 lung
experimental.details: NCI tumour cell line growth inhibition, 48 h
Where a SMILES comes first, the peptide text is derived from it. [ ]: non-standard residue; d: D form. The star is where a group is joined. ξ: configuration not given here. ξNMe2Val = CC(C)C(C(=O)*)N(C)C; NMeV = CN[CH](C(=O)O)C(C)C; NHBn = c1ccc(CN*)cc1
measured.metric: TGI

Input line: Recall and state the measured TGI for CC(C)C(NC(=O)C(C(C)C)N(C)C)C(=O)N(C)C(C(=O)N1CCCC1C(=O)N1CCCC1C(=O)NCc1ccccc1)C(C)C (stereo unspecified) (ξNMe2Val-V[NMeV]PP-NHBn; configuration not given here) .
Output line: > 100 µM

Input line: Return reported TGI. Input molecule: COc1cccc(/C=N/n2c(Cc3ccccc3)n[nH]c2=O)c1
Output line: > 100 µM

Input line: // Input: COC(=O)c1c([N+](=O)[O-])ncn1[C@H]1OC[C@@H](OC(C)=O)[C@@H](OC(C)=O)[C@@H]1OC(C)=O . Output its TGI only.
Output line: > 100 µM

Input line: Could you please provide reported TGI for C[C@@H]1C[C@H]2[C@@H]3CCC4=CC(=O)C=C[C@]4(C)[C@@]3(F)[C@@H](O)C[C@]2(C)[C@@]1(O)C(=O)CO ? Thanks!
Output line: > 100 µM

Input line: Specify reported TGI for the molecule shown: CC(C)CC(NC(=O)C(C)(CI)Cc1ccccc1)C(=O)Nc1ccccc1 (stereo unspecified)
Output line: > 100 µM

Input line: Name the recorded TGI of the item O=C1Nc2c(ccc(Cl)c2Cl)/C1=C/c1cc(Br)c(O)c(Br)c1 in your answer.
Output line: > 65.7 µM

----------
Would you kindly list TGI for each of these compounds?
Tested on: HOP-92 NSCLC
experimental.details: NCI tumour cell line growth inhibition, 48 h
The reply should be a number in µM, with the unit left off.

Input line: Using the record for CCc1ccc(Oc2c(-c3ccc(OCc4ccc(Cl)cc4)cc3O)n[nH]c2C(F)(F)F)cc1 , state its measured TGI.
Output line: 4.77

Input line: Identify the reported TGI for the following entry. COc1ccc(Nc2nc3cc(N)cc(N)c3nc2-c2ccccc2)cc1
Output line: 52.6

Input line: Input CCOc1cc(C2CC(c3ccc(NS(=O)(=O)c4cc([N+](=O)[O-])ccc4C)cc3)=NN2S(=O)(=O)c2cc([N+](=O)[O-])ccc2C)ccc1O (stereo unspecified) , output reported TGI.
Output line: 60.7

Input line: Give the value of TGI reported for the following: O=C1NC2c3c(I)sc(I)c3C(=O)C2O1 (stereo unspecified)
Output line: 10.1

Input line: Please look at this compound and report its TGI: Cc1cc2c(C(=O)NC[C@H](C)c3ccccc3)c(O)c(O)cc2c(O)c1-c1c(C)cc2c(C(=O)NC[C@H](C)c3ccccc3)c(O)c(O)cc2c1O
Output line: 1

Input line: Please look at this compound and report its TGI: C=CN(C(=O)N1CCN(c2cc3c(cc2F)c(=O)c(C(=O)O)cn3C2CC2)CC1)c1nc(-c2ccc(OC)cc2)cs1
Output line: 5.57

Input line: Supply measured TGI of OC(CNc1ccnc2cc(Cl)ccc12)CNc1ccnc2cc(Cl)ccc12 in your reply.
Output line: 19.1

----------
System: HL-60(TB) leukemia
experimental.details: NCI tumour cell line growth inhibition, 48 h
Where a SMILES comes first, the peptide text is derived from it. [ ]: non-standard residue; d: D form. The star is where a group is joined. ξ: configuration not given here. ξNMe2Val = CC(C)C(C(=O)*)N(C)C; NMeV = CN[CH](C(=O)O)C(C)C; NHBn = c1ccc(CN*)cc1
I'd appreciate it if you could supply TGI values for the items below.

Input line: Give TGI for the following molecule: CN(C)C(C1=C(O)C(c2ccccc2)N(c2ccccc2)C1=O)N1CCOCC1 (stereo not given)
Output line: > 10 µM

Input line: Given COc1ccc(C2SC(N)=Nc3c2c(C)nn3C(=O)c2ccccc2O)cc1OC (stereo not given) , respond with its TGI.
Output line: > 10 µM

Input line: In one line, give reported TGI of the entry CC1Cc2c(Cl)ncnc2N(C)c2ccc(Cl)cc21 (stereo not given) .
Output line: > 100 µM

Input line: Supply reported TGI belonging to this molecule: O=C(O)CCNCC(=O)O
Output line: > 100 µM

Input line: Report TGI, nothing else, for this molecule: COC(=O)c1c([N+](=O)[O-])ncn1[C@H]1OC[C@@H](OC(C)=O)[C@@H](OC(C)=O)[C@@H]1OC(C)=O
Output line: > 100 µM

Input line: Give a short answer stating reported TGI for Cc1ccc(O)c(Cc2nc3ccccc3nc2-c2cccc(Cl)c2)c1 .
Output line: > 100 µM

Input line: Give the value of TGI reported for the following: CNC(=O)C(C)NC(=O)C(Cc1ccccc1)NC(=O)c1ccccc1 (stereo not given)
Output line: > 100 µM

Input line: Given CC(C)(C)[Si](OC1CCOC1=O)(c1ccccc1)c1ccccc1 (stereo not given) , respond with its TGI.
Output line: > 100 µM

Input line: Give the value of TGI reported for the following: COc1cccc2c1c1ccc3c(c1n2C)C(=O)C=CC3=O
Output line: > 100 µM

Input line: Return TGI for the following molecule: Cc1c(-c2cnccn2)ssc1=S
Output line: > 77.4 µM

Input line: Please supply the value of reported TGI for the item C=CCNC(=O)NCCCCC(NC(C)=O)C(=O)NCc1ccccc1 (stereo not given)
Output line: > 100 µM

Input line: Note down TGI recorded for c1csc(-c2nn3c(C45CC6CC(CC(C6)C4)C5)nnc3s2)c1
Output line: > 100 µM

Input line: For the molecule CC(C)C(NC(=O)C(C(C)C)N(C)C)C(=O)N(C)C(C(=O)N1CCCC1C(=O)N1CCCC1C(=O)NCc1ccccc1)C(C)C (stereo not given) (ξNMe2Val-V[NMeV]PP-NHBn; configuration not given here) , give its reported TGI.
Output line: < 0.0001 µM

Input line: Note down TGI recorded for N#CC12C(=O)N3C(=NC(c4ccco4)NC3c3ccco3)C1(C#N)C(c1ccco1)NC1=C2CCCC1 (stereo not given)
Output line: > 100 µM

Input line: Let me know recorded TGI for Cc1cc(NC2=CC(=O)C(=O)c3ccccc32)no1 , thanks.
Output line: > 29.6 µM

Sourced from PubChem BioAssay (NCI)
